Target: human glucagon receptor (human) (UniProt P47871)
Sequence (P47871 26-477): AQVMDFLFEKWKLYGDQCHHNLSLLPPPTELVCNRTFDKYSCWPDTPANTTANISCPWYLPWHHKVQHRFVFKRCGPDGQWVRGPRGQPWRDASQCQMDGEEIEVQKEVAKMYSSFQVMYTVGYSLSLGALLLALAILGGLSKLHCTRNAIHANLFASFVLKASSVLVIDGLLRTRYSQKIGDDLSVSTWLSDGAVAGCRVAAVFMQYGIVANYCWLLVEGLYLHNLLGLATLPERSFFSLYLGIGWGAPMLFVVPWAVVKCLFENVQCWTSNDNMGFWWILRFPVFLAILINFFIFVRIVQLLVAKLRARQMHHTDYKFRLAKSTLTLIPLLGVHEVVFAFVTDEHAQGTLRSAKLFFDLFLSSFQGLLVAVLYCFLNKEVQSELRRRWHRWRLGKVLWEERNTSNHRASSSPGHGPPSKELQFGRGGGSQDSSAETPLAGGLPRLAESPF
Test: cell-based or functional assay
metric: Relative cAMP EC50 (nM)

• YXQGTXTSDXSILLDXKAQXXFIEXLEEGGPSSGAPPPSGTGE (synthetic construct; SITE 2: note = 2-Aminoisobutyric Acid; SITE 6: note = alpha-methyl-2-fluoro-L-phenylalanine; SITE 10: note = 3-(4-Pyridyl)-L-alanine; SITE 16: note = L-ornithine; SITE 17: note = Lysine is chemically modified through conjugation of the epsilon-amino group of the Lysine side chai) [Example 674 (SEQ ID NO: 680)] = 2.09
• YXQGTFTSDFSKXLDKKAQXAFIEYLLEGGPSSGAPPPGGS (Aib, αMeL; acylated Lys; C-terminal amide; synthetic construct; SITE 2: note = 2-Aminoisobutyric Acid; SITE 13: note = alpha-methyl-leucine; SITE 17: note = Lysine is chemically modified through conjugation of the epsilon-amino group of the Lysine side chain with (2-[2-(2-Amino-ethoxy)-ethoxy]-acetyl)-(gamma-Glu)-CO-(CH2) 18-CO2H; SITE 20: n) [Example 18] = 2.7
• YXQGTFTSDFSXXLDKKAQXAFIEYLLEAGPSSGAPPPSGS (Aib, Orn, αMeL, D-Ala; acylated Lys; synthetic construct; SITE 2: note = 2-Aminoisobutyric Acid; SITE 12: note = L-ornithine; SITE 13: note = alpha-methyl-leucine; SITE 17: note = Lysine is chemically modified through conjugation of the epsilon-amino group of the Lysine side chain with (2-[2-(2-Amino-ethoxy)-ethoxy]-acetyl)-(gamma-Glu)) [Example 212] = 3.74
